B1: Caulobacter ParB omega fusion; a variant is named by its letters at X, in order, B8GW30 (parent)
chain: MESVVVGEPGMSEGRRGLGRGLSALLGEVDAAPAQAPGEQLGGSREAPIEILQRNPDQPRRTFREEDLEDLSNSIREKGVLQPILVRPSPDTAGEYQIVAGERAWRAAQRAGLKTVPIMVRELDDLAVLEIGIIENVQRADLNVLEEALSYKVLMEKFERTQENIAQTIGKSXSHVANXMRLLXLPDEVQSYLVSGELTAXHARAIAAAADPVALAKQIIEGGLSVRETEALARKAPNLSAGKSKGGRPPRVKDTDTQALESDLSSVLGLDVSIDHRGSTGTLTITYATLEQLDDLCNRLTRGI

- Variants of: B1
- assay: one-hybrid fitness for binding NBS DNA (the Noc-binding site; scaled: cognate 1, non-cognate 0); higher = stronger binding
- condition.notes: with NBS DNA site
In all, about 81,000 sequences were measured (“one-hybrid fitness for binding NBS DNA”: median about -0.1, highest 2% from about 0.36 on). The sample as a whole holds a higher share of the highest values than the screen did.
assay.endpoint: one-hybrid fitness for binding NBS DNA

Solved cases below.
mutant_name=QYRM result_value=0.394
mutant_name=QRES result_value=0.469
mutant_name=YKQS result_value="≤ 0.2"
mutant_name=HWGA result_value="≤ 0.2"
mutant_name=QLQR result_value=0.483

# one-hybrid fitness for binding NBS DNA (variant: `PNVF` ) is ≤ 0.2

# one-hybrid fitness for binding NBS DNA (variant: `RKAP` ) is ≤ 0.2

# one-hybrid fitness for binding NBS DNA (variant: `RRAC` ) is 0.328

# one-hybrid fitness for binding NBS DNA (variant: `QMVN` ) is ≤ 0.2

# one-hybrid fitness for binding NBS DNA (variant: `DLRT` ) is ≤ 0.2

# one-hybrid fitness for binding NBS DNA (variant: `KRMN` ) is ≤ 0.2

# one-hybrid fitness for binding NBS DNA (variant: `QFDR` ) is ≤ 0.2

# one-hybrid fitness for binding NBS DNA (variant: `QFFG` ) is 0.554

# one-hybrid fitness for binding NBS DNA (variant: `PQMI` ) is ≤ 0.2

# one-hybrid fitness for binding NBS DNA (variant: `VYHT` ) is ≤ 0.2

# one-hybrid fitness for binding NBS DNA (variant: `QFYR` ) is ≤ 0.2

# one-hybrid fitness for binding NBS DNA (variant: `QLCP` ) is ≤ 0.2

# one-hybrid fitness for binding NBS DNA (variant: `RTIS` ) is 0.34

# one-hybrid fitness for binding NBS DNA (variant: `RTDH` ) is ≤ 0.2

# one-hybrid fitness for binding NBS DNA (variant: `QYWT` ) is 0.378

# one-hybrid fitness for binding NBS DNA (variant: `GWHC` ) is ≤ 0.2

# one-hybrid fitness for binding NBS DNA (variant: `AHIF` ) is ≤ 0.2

# one-hybrid fitness for binding NBS DNA (variant: `QYYM` ) is ≤ 0.2

# one-hybrid fitness for binding NBS DNA (variant: `QYRT` ) is 0.733

# one-hybrid fitness for binding NBS DNA (variant: `QYKS` ) is 0.643

# one-hybrid fitness for binding NBS DNA (variant: `QSFY` ) is ≤ 0.2

# one-hybrid fitness for binding NBS DNA (variant: `QYFT` ) is 0.335
